Reported ΔTm values, TRAF2 and NCK-interacting protein kinase (Homo sapiens) (UniProt Q9UKE5).

{"compound": "O=c1c2ccccc2[nH]c(=S)n1CCN1CCC(=C(c2ccc(F)cc2)c2ccc(F)cc2)CC1 [DIACYLGLYCEROL KINASE INHIBITOR II]", "unit_symbol": "°C", "ΔTm": 0}
{"compound": "COc1cc(C[C@H]2C(=O)OC[C@@H]2Cc2ccc(OC)c(OC)c2)ccc1O [ARCTIGENIN]", "unit_symbol": "°C", "ΔTm": -0.2}
{"compound": "CN(C)C[C@@H]1CCn2cc(c3ccccc32)C2=C(C(=O)NC2=O)c2cn(c3ccccc23)CCO1 [RUBOXISTAURIN]", "unit_symbol": "°C", "ΔTm": -0.3}
{"compound": "COc1cc(O)c2c(c1)oc(=O)c1c3cc(O)c(O)cc3oc21 [WEDELOLACTONE]", "unit_symbol": "°C", "ΔTm": 1.3}
